Entry source: the Immune Epitope Database (IEDB)

Subject of test: HLA-B*27:05
Assay overview: IEDB peptide-MHC binding, purified MHC/direct/fluorescence; filed as Kd, often an IC50 or EC50 that approximates it; bounds were set here for any values at or beyond the usual limits of such assays
Stated conditions: source organism: Coxiella burnetii
pKd: −log10 of the molar value.
Endpoint label: pKd

Q: // lookup pKd for `EEMPLVWDL`
Ans: ≤ 4.70

* * *

Subject of test: HLA-A*26:01
Assay overview: IEDB peptide-MHC binding, purified MHC/competitive/fluorescence; filed as Kd, often an IC50 or EC50 that approximates it; bounds were set here for any values at or beyond the usual limits of such assays
Stated conditions: source organism: Entamoeba histolytica HM-1:IMSS
pKd: −log10 of the molar value.
Endpoint label: pKd

Q: Record `LICYQIEYI` : what is its pKd with HLA-A*26:01?
Ans: ≤ 4.70
